Assay: solvent given as SMILES
Details: in CC(C)=O
Threshold-based label: absorption maximum under 400 nm gives 1.0, absorption maximum not under 400 nm gives 0.0.

- COMPOUND SMILES: "CCc1ccc(/C=C/c2ccc(-c3nnc(-c4ccc(-c5cc6ccccc6s5)cc4)o3)cc2)cc1"
  CAT: 1.0
- COMPOUND SMILES: "CN(C)c1ccc(C2=Nc3sc4cc(F)ccc4[n+]3[B-](F)(F)O2)cc1"
  CAT: 0.0
- COMPOUND SMILES: "O=C1/C(=C\\c2ccc3oc4ccccc4c3c2)S(=O)(=O)c2ccccc21"
  CAT: 1.0
- COMPOUND SMILES: "CC1(C)c2ccccc2N(c2ccc(-c3nnc(-c4ccccc4O)o3)cc2)c2ccccc21"
  CAT: 1.0
- COMPOUND SMILES: "CCCCCCCCCCCCCCCC[n+]1ccc(/C=C(\\C)c2ccccc2)cc1"
  CAT: 1.0
- COMPOUND SMILES: "CS(=O)(=O)c1ccc(-c2cc3ccc(N)cc3c(=O)o2)cc1"
  CAT: 1.0
- COMPOUND SMILES: "COC(=O)c1ccc2c3ccc(C(=O)OC)c4c(C(=O)OC)ccc(c5ccc(C(=O)OC)c1c25)c43"
  CAT: 0.0
- COMPOUND SMILES: "COc1ccc(/C=C/C2=CC(/C=C/c3ccc(OC)cc3)=[O+][B-](OC(C)=O)(OC(C)=O)O2)cc1"
  CAT: 0.0
- COMPOUND SMILES: "COc1ccc(N(c2ccc(OC)cc2)c2ccc3ccc4c(B(c5c(C)cc(C)cc5C)c5c(C)cc(C)cc5C)ccc5ccc2c3c54)cc1"
  CAT: 0.0
- COMPOUND SMILES: "CN(C)c1ccc2cc(C3=[O+][B-](F)(F)OC(c4ccc(C#N)cc4)=C3)ccc2c1"
  CAT: 0.0
- COMPOUND SMILES: "Fc1c(F)c(F)c([B-]2(c3c(F)c(F)c(F)c(F)c3F)Oc3c(ccc4c5c(ccc34)C=[N+](c3ccccc3)[B-](c3c(F)c(F)c(F)c(F)c3F)(c3c(F)c(F)c(F)c(F)c3F)O5)C=[N+]2c2ccccc2)c(F)c1F"
  CAT: 0.0
- COMPOUND SMILES: "N#CC(C#N)=C(c1ccc(N(c2ccccc2)c2ccccc2)cc1)c1ccc(N(c2ccccc2)c2ccccc2)cc1"
  CAT: 1.0
- COMPOUND SMILES: "O=C1CCCC2=C1CC1=C(CCCC1=O)N2NC(=O)c1ccccc1"
  CAT: 1.0
- COMPOUND SMILES: "CC(C)(C)c1ccc2c(c1)c1cc(C(C)(C)C)ccc1n2-c1ccccc1-c1nc(-c2ccccc2-n2c3ccc(C(C)(C)C)cc3c3cc(C(C)(C)C)ccc32)nc(-c2ccccc2P(=O)(c2ccccc2)c2ccccc2)n1"
  CAT: 1.0
- COMPOUND SMILES: "Nc1ccc2c(C(F)(F)F)cc(=O)oc2c1"
  CAT: 1.0
- COMPOUND SMILES: "Cn1c(/C=C/c2ccc(/C=C/c3nc4ccccc4[nH]3)cc2)[n+](C)c2ccccc21"
  CAT: 1.0
- COMPOUND SMILES: "COc1ccc(OC)c(C=O)c1"
  CAT: 1.0
- COMPOUND SMILES: "CCCCN1C(=O)c2cccc3c([O-])c(/C=C/c4sc5ccccc5[n+]4CC)cc(c23)C1=O"
  CAT: 0.0
- COMPOUND SMILES: "CCN(CC)c1ccc(Nc2cc3oc(-c4ccc(C#N)cc4)nc3c3ccccc23)cc1"
  CAT: 0.0
- COMPOUND SMILES: "COc1ccc(/N=N/c2c(O)c3ccccc3n(C)c2=O)c(S(=O)(=O)O)c1"
  CAT: 0.0
- COMPOUND SMILES: "CN(C)c1ccc(/C=C/c2cc[n+](CCC[n+]3ccc(/C=C/c4ccc(N(C)C)cc4)cc3)cc2)cc1"
  CAT: 0.0
- COMPOUND SMILES: "CCC1=C(C)C2=C(C)c3c(I)c(I)c(I)n3[B-](F)(F)[N+]2=C1C"
  CAT: 0.0
- COMPOUND SMILES: "CCC1(CC)c2ccccc2-c2c1c1c(c3c2C(CC)(CC)c2cc(N(c4ccccc4)c4ccccc4)ccc2-3)C(CC)(CC)c2ccccc2-1"
  CAT: 1.0
- COMPOUND SMILES: "c1ccc(-c2nc(-c3ccc(-c4ccc(N(c5ccccc5)c5ccccc5)cc4)cn3)oc2-c2ccccc2)cc1"
  CAT: 1.0
- COMPOUND SMILES: "CC(C)(C)c1ccc2c(c1)c1cc(C(C)(C)C)ccc1n2-c1cccc(-c2nc(-c3cccc(-n4c5ccc(C(C)(C)C)cc5c5cc(C(C)(C)C)ccc54)c3)nc(-c3cccc(P(=O)(c4ccccc4)c4ccccc4)c3)n2)c1"
  CAT: 1.0
- COMPOUND SMILES: "CCC1(CC)c2cc(B(c3c(C)cc(C)cc3C)c3c(C)cc(C)cc3C)ccc2-c2c1c1c(c3c2C(CC)(CC)c2cc(N(c4ccccc4)c4ccccc4)ccc2-3)C(CC)(CC)c2cc(B(c3c(C)cc(C)cc3C)c3c(C)cc(C)cc3C)ccc2-1"
  CAT: 1.0
- COMPOUND SMILES: "CN1CCN(c2ccc3c4c(cccc24)C(=O)c2ccccc2-3)CC1"
  CAT: 0.0
- COMPOUND SMILES: "CC(C)(C)c1ccc2c(c1)c1cc(C(C)(C)C)ccc1n2-c1ccccc1-c1nc(-c2ccccc2P(=O)(c2ccccc2)c2ccccc2)nc(-c2ccccc2P(=O)(c2ccccc2)c2ccccc2)n1"
  CAT: 1.0
